tested on: S. aureus RN4220/pMS520; assay: MIC, agar plate dilution method, S. aureus RN4220/pMS520; assay type: cell-based, Staphylococcus aureus; conditions: Staphylococcus aureus, MRSA, read-out: minimal inhibitory concentration (MIC), S. aureus RN4220/pMS520, MRSA
measurementLabel: MIC

Some solved cases for reference:
| compound | MIC |
| --- | --- |
| CNC1C(O[C@H]2OC(CO)[C@@H](NC(CN)CN)[C@H](O)C2O)O[C@H]2CC(N)[C@@H](O[C@H]3CC[C@H](N)CC3N)OC2C1O (some centres unmarked) | 1 µg/mL |
| CNC1C(O[C@H]2OC(CO)[C@@H](NC(=N)N)CC2O)O[C@H]2CC(N)[C@@H](O[C@@H]3C(N)C[C@@H](N)C(O)[C@H]3F)OC2C1O (some centres unmarked) | 1 µg/mL |
| CNC1C(O[C@H]2OC(CO)[C@@H](N(CCN)CCN)[C@H](O)C2O)O[C@H]2CC(N)[C@@H](O[C@@H]3C(N)C[C@@H](N)C(O)[C@H]3O)OC2C1O (some centres unmarked) | 2 µg/mL |
| CNCC(=O)N[C@@H]1C(CO)O[C@H](OC2O[C@H]3CC(N)[C@@H](O[C@@H]4C(N)C[C@@H](N)C(O)[C@H]4O)OC3C(O)C2NC)C(O)[C@H]1O (some centres unmarked) | 2 µg/mL |

Would you kindly look at the next entry?
Ask | I have this compound here, CNC1C(O[C@H]2OC(CO)[C@@H](N)[C@H](O)C2N)O[C@H]2CC(N)[C@@H](O[C@@H]3C(N)C[C@@H](N)C(O)[C@H]3O)OC2C1O (some centres unmarked) [Compound G7, 2″-amino-2″-deoxy-2″,3″-diepiapramycin] , and I need its recorded MIC.
Reply | 8 µg/mL

----------
Quick reference for MIC among some compounds
system: S. aureus RN4220/pMS520; test: MIC, agar plate dilution method, S. aureus RN4220/pMS520; assay type: cell-based, Staphylococcus aureus; conditions: Staphylococcus aureus, MRSA, read-out: minimal inhibitory concentration (MIC), S. aureus RN4220/pMS520, MRSA
API: value field is a number in µg/mL; no unit string.

Some solved cases for reference:
| compound | unitSpec | MIC |
| --- | --- | --- |
| CNC1C(O[C@H]2OC(CO)[C@@H](NCCN)[C@H](O)C2O)O[C@H]2CC(N)[C@@H](O[C@H]3CC(O)[C@H](N)CC3N)OC2C1O (stereo partly drawn) [Compound S1-b, 4″-N-(2-aminoethyl)-5-deoxyapramycin] | µg/mL | 1 |
| CNC1C(O[C@H]2OC(CO)[C@@H](NC(=N)N)[C@H](O)C2O)O[C@H]2CC(N)[C@@H](O[C@@H]3C(N)C[C@@H](N)C(O)[C@H]3O)OC2C1O (stereo partly drawn) [Compound A4-j, 4″-deamino-4″-guanidinoapramycin] | µg/mL | 2 |

Ask | Identify the measured MIC of CNC1C(O[C@H]2OC(CO)[C@@H](NCCCN)[C@H](O)C2O)O[C@H]2CC(N)[C@@H](O[C@@H]3C(N)C[C@@H](N)C(O)[C@H]3O)OC2C1O (stereo partly drawn) [Compound A4-b, 4″-N-(3-aminopropyl)apramycin] for S. aureus RN4220/pMS520.
Reply | 4

----------
Quick reference for MIC among some compounds
test system: S. aureus MF490
API: value field is a number in µg/mL; no unit string.

Some solved cases for reference:
| compound | unitSpec | dataValue |
| --- | --- | --- |
| CNC1C(O[C@H]2OC(CO)[C@@H](NC(CN)CN)[C@H](O)C2O)O[C@H]2CC(N)[C@@H](O[C@H]3CC[C@H](N)CC3N)OC2C1O (some centres unmarked) [Compound T2-d] | µg/mL | 4 |
| CNC1C(O[C@H]2OC(CO)[C@@H](NC(=O)[C@@H](O)CN)[C@H](O)C2O)O[C@H]2C[C@H](N)[C@@H](O[C@@H]3C(N)C[C@@H](N)C(O)[C@H]3O)OC2C1O (stereo partly drawn) [Compound V1-n, 5-epi-4″-N-(L-isoseryl)apramycin] | µg/mL | 8 |
| CNC1C(O[C@H]2OC(CO)[C@@H](NC(=N)N)[C@H](O)C2O)O[C@H]2CC(N)[C@@H](O[C@H]3CC[C@H](N)CC3N)OC2C1O (some centres unmarked) [Compound T2-e] | µg/mL | 2 |

Would you kindly look at the next entry?
Ask | I have this compound here, CNC1C(O[C@H]2OC(CO)[C@@H](NC)[C@H](O)C2O)O[C@H]2CC(N)[C@@H](O[C@H]3CC(O)[C@H](N)CC3N)OC2C1O (some centres unmarked) [Compound S1-a, 5-deoxy-4″-N-methylapramycin] , and I need its recorded MIC.
Reply | 8

----------
system: E. faecium ATCC19434; experiment: MIC, agar plate dilution method, E. faecium ATCC19434; type: cell-based, Enterococcus faecium; details: E. faecium ATCC19434
Quick reference for minimal inhibitory concentration (MIC) among some molecules
Please give the number followed by its unit.

Some solved cases for reference:
| molecule | dataValue |
| --- | --- |
| CNC1C(OC2OC(CO)C(N)CC2O)OC2CC(N)C(OC3C(N)CC(N)C(O)C3O)OC2C1O (stereo not drawn) [Compound M9, 3″-deoxy-5-epiapramycin] | 8 µg/mL |
| CN[C@@H]1[C@@H](O[C@H]2O[C@H](CO)[C@@H](N)[C@H](O)[C@H]2O)O[C@H]2C[C@@H](N)[C@@H](O[C@H]3[C@H](N)[C@@H](O)[C@H](N)C[C@@H]3N)O[C@@H]2[C@@H]1O [Compound E3, 5-amino-5-deoxyapramycin] | 64 µg/mL |

Ask | I have this molecule here, CN[C@@H]1[C@@H](O[C@H]2O[C@H](CO)[C@@H](NC(=N)N)[C@H](O)[C@H]2O)O[C@H]2C[C@@H](N)[C@@H](O[C@H]3[C@@H](O)[C@@H](O)[C@H](N)C[C@@H]3N)O[C@@H]2[C@@H]1O [Compound S1-j, 4″-deamino-5-epi-4″-guanidinoapramycin] , and I need its recorded minimal inhibitory concentration (MIC).
Reply | 8 µg/mL

----------
Quick reference for MIC among some compounds
tested on: P. aeruginosa MSC17707; experiment: MIC, agar plate dilution method, P. aeruginosa MSC17707; format: cell-based, Pseudomonas aeruginosa; settings: Pseudomonas aeruginosa, MSC17707, P. aeruginosa MSC17707, AMK-resistant, read-out: minimal inhibitory concentration (MIC)
API: value field is a number in µg/mL; no unit string.

Some solved cases for reference:
| compound | unitSpec | MIC |
| --- | --- | --- |
| NCC[C@H](O)C(=O)N[C@@H]1C[C@H](N)[C@@H](O[C@H]2O[C@H](CN)CC[C@H]2N)[C@H](O)[C@H]1O[C@H]1O[C@H](CO)[C@@H](O)[C@H](N)[C@H]1O [ABK, arbekacin, reference compound] | µg/mL | 4 |
| CNC1C(O[C@H]2OC(CO)[C@@H](N)[C@H](N)C2O)O[C@H]2CC(N)[C@@H](O[C@@H]3C(N)C[C@@H](N)C(O)[C@H]3O)OC2C1O (stereo partly shown) | µg/mL | 16 |
| CNC1C(O[C@H]2OC(CO)[C@@H](N)[C@H](O)C2N)O[C@H]2CC(N)[C@@H](O[C@@H]3C(N)C[C@@H](N)C(O)[C@H]3O)OC2C1O (stereo partly shown) [Compound G7, 2″-amino-2″-deoxy-2″,3″-diepiapramycin] | µg/mL | 8 |
| CNC1C(O[C@H]2OC(CO)[C@@H](NCCCN)[C@H](O)C2O)O[C@H]2CC(N)[C@@H](O[C@@H]3C(N)C[C@@H](N)C(O)[C@H]3O)OC2C1O (stereo partly shown) | µg/mL | 8 |

Ask | I have this compound here, CNC1C(O[C@H]2OC(CO)[C@@H](NCCCN)[C@H](O)C2O)O[C@H]2CC(N)[C@@H](O[C@H]3CC(O)[C@H](N)CC3N)OC2C1O (stereo partly shown) , and I need its recorded MIC.
Reply | 8

Ask | And then CNC1C(O[C@H]2OC(CO)[C@@H](NC(CN)CN)[C@H](O)C2O)O[C@H]2CC(N)[C@@H](O[C@H]3CC[C@H](N)CC3N)OC2C1O (stereo partly shown) , what is it?
Reply | 8

Ask | And then CNCC(=O)N[C@@H]1C(CO)O[C@H](OC2O[C@H]3CC(N)[C@@H](O[C@@H]4C(N)C[C@@H](N)C(O)[C@H]4O)OC3C(O)C2NC)C(O)[C@H]1O (stereo partly shown) , what is it?
Reply | 4

----------
test system: E. faecium ATCC19434
Quick reference for MIC among some compounds
API: value field is a number in µg/mL; no unit string.

| compound | dataValue |
| --- | --- |
| CNC1C(O[C@H]2OC(CF)[C@@H](N)[C@H](O)C2O)O[C@H]2CC(N)[C@@H](O[C@@H]3C(N)C[C@@H](N)C(O)[C@H]3O)OC2C1O (stereo partly drawn) | 32 |
| CNC1C(O[C@H]2OC(CO)[C@@H](NC(=N)N)CC2O)O[C@H]2CC(N)[C@@H](O[C@@H]3C(N)C[C@@H](N)C(O)[C@H]3F)OC2C1O (stereo partly drawn) | 8 |

Ask | Identify the measured MIC of CNC1C(O[C@H]2OC(CO)[C@@H](NCCN)[C@H](O)C2O)O[C@H]2CC(N)[C@@H](O[C@@H]3C(N)C[C@@H](N)C(O)[C@H]3O)OC2C1O (stereo partly drawn) [Compound S1-g, 4″-N-(2-aminoethyl)-5-epiapramycin] for E. faecium ATCC19434.
Reply | 16

Ask | And then CNC1C(O[C@H]2OC(CO)[C@@H](NC)[C@H](O)C2O)O[C@H]2CC(N)[C@@H](O[C@H]3CC(O)[C@H](N)CC3N)OC2C1O (stereo partly drawn) , what is it?
Reply | 32

Ask | And then CNC1C(O[C@H]2OC(CO)[C@@H](NCCN)[C@H](O)C2O)O[C@H]2CC(N)[C@@H](O[C@H]3CC(O)[C@H](N)CC3N)OC2C1O (stereo partly drawn) , what is it?
Reply | 8

Ask | And then CNC1C(O[C@H]2OC(CO)[C@@H](NCCCN)[C@H](O)C2O)O[C@H]2CC(N)[C@@H](O[C@H]3CC[C@H](N)CC3N)OC2C1O (stereo partly drawn) , what is it?
Reply | 8

Ask | And then CNC1C(O[C@H]2OC(CO)[C@@H](NC(=N)N)[C@H](O)C2O)O[C@H]2CC(N)[C@@H](O[C@H]3CC(O)[C@H](N)CC3N)OC2C1O (stereo partly drawn) , what is it?
Reply | 4

Ask | And then CNC1C(O[C@H]2OC(CO)[C@@H](N[C@H]3CC[C@@H](N)CC3)[C@H](O)C2O)O[C@H]2CC(N)[C@@H](O[C@@H]3C(N)C[C@@H](N)C(O)[C@H]3O)OC2C1O (stereo partly drawn) , what is it?
Reply | 32

Ask | And then CNC1C(O[C@H]2OC(CO)[C@@H](NC(=O)[C@@H](O)CN)[C@H](O)C2O)O[C@H]2CC(N)[C@@H](O[C@@H]3C(N)C[C@@H](N)C(O)[C@H]3O)OC2C1O (stereo partly drawn) , what is it?
Reply | 32

Ask | And then CNC1C(O[C@H]2OC(CO)[C@@H](NC(=O)[C@H](O)CN)[C@H](O)C2O)O[C@H]2C[C@H](N)[C@@H](O[C@@H]3C(N)C[C@@H](N)C(O)[C@H]3O)OC2C1O (stereo partly drawn) [Compound V1-s, 5-epi-4″-N-(D-isoseryl)apramycin] , what is it?
Reply | 16

Ask | And then CNC1C(O[C@H]2OC(CO)[C@@H](NC(=O)[C@@H](O)CN)[C@H](O)C2O)O[C@H]2C[C@H](N)[C@@H](O[C@@H]3C(N)C[C@@H](N)C(O)[C@H]3O)OC2C1O (stereo partly drawn) [Compound V1-n, 5-epi-4″-N-(L-isoseryl)apramycin] , what is it?
Reply | 16

Ask | And then CNC1C(O[C@H]2OC(CO)[C@@H](NC(=N)N)[C@H](O)C2O)O[C@H]2CC(N)[C@@H](O[C@@H]3C(N)C[C@@H](N)C(O)[C@H]3O)OC2C1O (stereo partly drawn) , what is it?
Reply | 16
